PBM binding z-score listing for selected sequences.
tested on: LXRb homodimer (NR concentration 270 nM); test: PBM binding z-score (relative to random genomic background probes); higher = stronger binding; sequences stand for … in GC…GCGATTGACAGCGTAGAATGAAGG
readout.name: PBM binding z-score

>>> print(df.to_string())
                          biosequence                           target_of_assay         readout_name   value
0  CCGAGTAGGTTATGGGGCATTCAGGCAACGGTGA  LXRb homodimer (NR concentration 270 nM)  PBM binding z-score  -0.322
1  TTATATAGGTAATACAGGTGAAAGTCGGCATCTA  LXRb homodimer (NR concentration 270 nM)  PBM binding z-score   0.539
2  CGTCCAAGGTCAATGCTAGGTCAGGGAAAGCATT  LXRb homodimer (NR concentration 270 nM)  PBM binding z-score   0.919
3  GCTTGTAGATCAAGGTCAAGAAAGACTAAGCTAA  LXRb homodimer (NR concentration 270 nM)  PBM binding z-score  0.0549
4  ACAGACAGGTGATGAAGGTAACACAGGCTATCAT  LXRb homodimer (NR concentration 270 nM)  PBM binding z-score  -0.129
5  TCATATAGGTAAAAGGTTAAAGTCGGTGTGGTAA  LXRb homodimer (NR concentration 270 nM)  PBM binding z-score   0.553
6  ATACCAAGGTGATCGTGAGGACGTTGATACTAAC  LXRb homodimer (NR concentration 270 nM)  PBM binding z-score  -0.331

###

system: RXRa homodimer (NR concentration 180 nM); test: PBM binding z-score (relative to random genomic background probes); higher = stronger binding; sequences stand for … in GC…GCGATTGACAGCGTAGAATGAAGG
Assign rule met whenever PBM binding z-score does not fall below 1; assign rule not met whenever it does.

>>> print(df.to_string())
                           biosequence  qualitative_label
 0  TAGCCCAGGTCATGGGCCAGTATACCACGCGAAC           rule met
 1  ATCGAAAGGTCGTGCGGTGAGTATACAGAAAGGC           rule met
 2  TAATATAGGTAAATGCTAGGTGAAAGTCCGATCT       rule not met
 3  TCGAGTAGGTTACCAATGGGGCCTTCAGCTTTCT       rule not met
 4  ATCTCTAGGTAAAGTTCAGTGGAAGATCGATAGA           rule met
 5  CCGACTGGGGCAAAGGCTACCATACTCAGTACGA       rule not met
 6  TCTGCTAGGTCAGTTGGTTAGCTAACGAGCTGCC       rule not met
 7  CCGACTGGGGCACGGTTACCATAACGCACAGCCA       rule not met
 8  GCTATTAGATGAAAGGGCAACCGAATGATTCTCG           rule met
 9  TCTAGCAGGCCAGAGGGTCAATCAAGAGGTACGG           rule met
10  TCAGACAAGTGAAGGTAACTCAGGTACGCAGTCG       rule not met
11  ACTAGCACGCCAAGGGTCACTCAAGATTAGTCCG           rule met
12  AGAATGAGGTTAAGATCTGGGAAACAGAATACAT           rule met
13  CTTACAGGGTCAGCTAGGCCAGAGTAGGGACGGC           rule met
14  ACTTACTGGTCAACGAGGTTATAGCACGCGTATA           rule met
15  TCTTGTAGGTCAACAGGAGGTTAAGAAAGATCGA           rule met
16  CATACAGGGTCAGCTGGGCCAGAGTAGGGACGGC           rule met
17  CGTCCAAAGTCAATGCTAGGTCAGTGAAAGCATT       rule not met
18  TCTTGTAGATCAACAGGAGTTTAAGAAAGATCGA       rule not met
19  ACCAGTTGGTCAGCTGAGGTCACACACAATTCGG           rule met
20  TCTTGTAGATCAATAGGGGTTAAGAAAGTGCGCT           rule met
21  CCGACTGGGGCATAAGGTTACCACAAGCCAGCCC           rule met
22  ACTAGTTGGTCAGGTGAGGTCACACACAATTCGG           rule met
23  GCTAGCAGGCCATTTGCGTCACTCAATGACGGGC       rule not met
24  GAAACGAGGGCATTCGAGTTGATAGCATGGCGAT           rule met
25  TCGAGTAGGTTACCAACGGGGCATTCAGCTTTCT       rule not met
26  ATCTCTAGGTAAAGTTCCGTGAAAGATCGATAGA       rule not met
27  GGAACGAGGGCAAGTTGGTAGCAGAGTTTGATGG       rule not met
28  CAAACTAGGTCAAAGTTCAAAGTCGAGCCAACCA           rule met
29  CTACCAAGGTGAACAAGGTAGTTGATTACTATTC       rule not met
30  GATACAGGGACAAGGCCAGAGTACGCGTATTGAT       rule not met
31  CGTCCAAGGTCATGGTCAGTGAAAGAGACTCGAA           rule met
32  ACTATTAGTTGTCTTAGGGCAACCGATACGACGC       rule not met
33  AGAACGAGGGCAATGATTTGATAGCACGGGTGGC       rule not met
34  TGCATGAGGTTAAAGATCAGGGAACGTGGCGTCG           rule met
35  GGGACTGGGGCAAAGCAGGTTACCATAAGGTTGG       rule not met
36  CCTACTGGGCCACGAAAGGTCGTTGATTCAGTGA           rule met
37  AATACAGGGTCAGTAGGCCAGAGTAGGTACGAAT           rule met
38  AATACAGGGTCATCGTGGGCCAGAGTACGCACAG           rule met
39  TCGAGTAGGTTACCAATGGGGCATTCAGCTTTCT       rule not met
40  TCTTGTAGATCAGCAGGTTAAGCAAGCTGGCCAA       rule not met
41  GCTTACGGGTCAAGGGTTATAGCATGAATAGAAT           rule met
42  CCTACTGGGCCATCAGGTCATTTATATCAACGTT       rule not met
43  TCTTGTACATCAATAGAGGTTAAGAAAGTGCGCT           rule met
44  GCTTACGGGTCAAAGGTTCTAGCATGAATAGAAT           rule met
45  TCGACTAGGTTAGTCGGGGCATTCAGCCAACATA       rule not met
46  ATCGAGAGGTCGACGAGGTGAGTATACACCGTTT           rule met
47  CAAACTGGGTCACCGGAAGGTCAAAGTCCGCATG           rule met
48  TCTCGGAAGACACGAAAGGTCAGAGCTCGACATC           rule met
49  CCGACTGGGGCAAGGTTACGATAACGCACAGCCA           rule met
50  TAGCCTAGGTCATGGGGCCAGTATAGTACGCATC           rule met

###

tested on: PPARg:RXRa 30nM:10nM, anti-RXR (NR concentration 30 nM, RXRa partner concentration 10 nM); assay: PBM binding z-score (relative to random genomic background probes); higher = stronger binding; sequences stand for … in GC…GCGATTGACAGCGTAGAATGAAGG
Assign class 1 whenever PBM binding z-score does not fall below -0.2; assign class 0 whenever it does.

In [3]: df
Out[3]:
                          biosequence  qualitative_label
0  GCTCGGAGGCCAAGGTCAGAGCTTTGTCCGTAGA            class 0
1  CAAACTAGGTCAAAGGTCACAGTCGAGCCAACCA            class 1
2  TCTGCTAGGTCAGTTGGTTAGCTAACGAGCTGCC            class 1
3  ATCGAAAGGTCGTGAGGTGAGTATACAGAAAGGC            class 1
4  CCTTACGGGTCACTCCTGGTTATAGCATCGGAGT            class 1
5  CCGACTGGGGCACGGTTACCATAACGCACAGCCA            class 0

###

tested on: PXR homodimer (NR concentration 270 nM); experiment: PBM binding z-score (relative to random genomic background probes); higher = stronger binding; sequences stand for … in GC…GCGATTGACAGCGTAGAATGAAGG
readout.name: PBM binding z-score

>>> df
                           biosequence                          target_of_assay   value
 0  TCTAGTTGGTCACGGAGGCCACACACGACGGGTA  PXR homodimer (NR concentration 270 nM)   0.425
 1  TCTTGTAGATCAAGTAGGTTAAGAAAGCCTGAGT  PXR homodimer (NR concentration 270 nM)   0.364
 2  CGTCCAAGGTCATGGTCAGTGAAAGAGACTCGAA  PXR homodimer (NR concentration 270 nM)   0.701
 3  CCTGCTAGGTAATGGTCAGCTAATCTACAGTATG  PXR homodimer (NR concentration 270 nM)  -0.524
 4  CCTCGTTGGTCAAGGTCACACACGCTATAGGTAC  PXR homodimer (NR concentration 270 nM)    1.82
 5  CCTCGGAGGACAACAGGAGGTCGGAGCTGCCAGA  PXR homodimer (NR concentration 270 nM)  -0.239
 6  GATACAGGGTCAGCTAGAGGCCTGAGTATGGAAA  PXR homodimer (NR concentration 270 nM)  -0.266
 7  CAAACTAGGTCACCGGAAGGTTAAAGTCCGCATG  PXR homodimer (NR concentration 270 nM)   0.858
 8  CCTACTGGGCCATCAGTTCATTGATATCAACGTT  PXR homodimer (NR concentration 270 nM)    2.78
 9  CAAACTACGTCAAGAGGTCAAAGTCCGCTTCCCG  PXR homodimer (NR concentration 270 nM)    3.22
10  CGTCCTAGGTCAAGGTCAGTGAAAGAGACTCGAA  PXR homodimer (NR concentration 270 nM)   0.941
11  CCGCGGAGGACAACAGGAGGTCAGAGCTGCCAGA  PXR homodimer (NR concentration 270 nM)    0.34

# credit: the supplement of paper PMC6555819
